List of pIC50 values.
- tested.system: HDAC1 (Homo sapiens (Human))
- Sequence (Q13547 whole entry): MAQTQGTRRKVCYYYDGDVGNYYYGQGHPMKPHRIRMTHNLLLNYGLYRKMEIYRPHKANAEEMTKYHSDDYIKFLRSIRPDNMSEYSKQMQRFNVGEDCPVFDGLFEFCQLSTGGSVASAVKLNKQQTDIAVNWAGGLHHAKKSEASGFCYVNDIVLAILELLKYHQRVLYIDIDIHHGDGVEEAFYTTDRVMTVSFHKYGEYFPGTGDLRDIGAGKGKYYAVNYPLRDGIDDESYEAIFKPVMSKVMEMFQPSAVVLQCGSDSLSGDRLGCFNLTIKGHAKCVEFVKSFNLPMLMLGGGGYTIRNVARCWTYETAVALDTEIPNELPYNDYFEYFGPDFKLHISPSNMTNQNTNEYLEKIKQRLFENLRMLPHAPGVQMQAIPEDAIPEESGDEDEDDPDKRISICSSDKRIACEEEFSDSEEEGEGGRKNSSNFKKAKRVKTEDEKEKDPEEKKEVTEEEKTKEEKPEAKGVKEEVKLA
# pIC50 = -log10(concentration in molar units)

# example entries with known answers
>>> number("O=C1NCCc2c(OCc3ccc(-c4noc(C(F)(F)F)n4)cn3)cccc21")
5.89
>>> number("O=C(C1CCS(=O)(=O)CC1)N(Cc1ccc(-c2noc(C(F)(F)F)n2)c(F)c1)c1cccc(C(F)(F)F)c1")
6.02
>>> number("O=C(Cn1ccnn1)N(Cc1ccc(-c2noc(C(F)(F)F)n2)cc1)c1cccc(C(F)(F)F)c1")
6.00
>>> number("COCC(=O)NC(Cc1ccc(-c2noc(C(F)(F)F)n2)cn1)c1cccc(C(F)(F)F)c1 (racemic)")
6.17

For O=C1COC[C@@H](c2ccccc2)N1c1cc(F)c(-c2noc(C(F)(F)F)n2)cc1F the molecule record lists pIC50 as 5.89

For O=c1cnc2ccccc2n1Cc1ccc(-c2noc(C(F)(F)F)n2)cn1 the molecule record lists pIC50 as 6.77

For CNC(=O)c1ccccc1OCc1ccc(-c2noc(C(F)(F)F)n2)c(F)c1 the molecule record lists pIC50 as 5.66

For O=C1NC(=O)[C@]2(CC[C@H](NCc3ccc(-c4noc(C(F)(F)F)n4)cn3)CC2)N1 the molecule record lists pIC50 as 5.47

For CC(C)(C)OC(=O)[C@@H]1CCC(=O)N1c1ccc(-c2noc(C(F)(F)F)n2)c(F)c1F the molecule record lists pIC50 as 5.89

For O=C1CCCC(c2ccccc2)N1c1ccc(-c2noc(C(F)(F)F)n2)cn1 (stereo not shown) the molecule record lists pIC50 as 5.54

For FC(F)(F)c1nc(-c2ccc(CNc3cnccn3)nc2)no1 the molecule record lists pIC50 as 6.00

For O=C(Cc1[nH]nc2ccccc12)N(Cc1ccc(-c2noc(C(F)(F)F)n2)cn1)c1cccc(F)c1 the molecule record lists pIC50 as 6.38

For O=C1COc2ccccc2N1Cc1ccc(-c2noc(C(F)(F)F)n2)cn1 the molecule record lists pIC50 as 6.82

For O=C1CC[C@@H](c2nc3ccccc3[nH]2)N1c1ccc(-c2noc(C(F)(F)F)n2)cc1 the molecule record lists pIC50 as 6.96

====

- tested.system: HDAC8 (Homo sapiens (Human), UniProt Q9BY41)
- Sequence (Q9BY41 whole entry): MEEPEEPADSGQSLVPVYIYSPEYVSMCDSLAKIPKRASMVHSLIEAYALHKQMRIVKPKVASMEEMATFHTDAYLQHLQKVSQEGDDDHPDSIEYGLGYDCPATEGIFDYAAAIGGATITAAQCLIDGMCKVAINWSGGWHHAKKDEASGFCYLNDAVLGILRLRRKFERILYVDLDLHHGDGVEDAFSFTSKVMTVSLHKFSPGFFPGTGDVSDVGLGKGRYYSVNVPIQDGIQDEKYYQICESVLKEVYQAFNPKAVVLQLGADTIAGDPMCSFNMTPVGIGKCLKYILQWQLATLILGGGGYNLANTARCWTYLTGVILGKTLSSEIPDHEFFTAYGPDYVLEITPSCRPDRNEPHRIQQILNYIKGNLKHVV
readout.name: pIC50
# pIC50 = -log10(concentration in molar units)

# example entries with known answers
>>> number("O=C([C@@H]1CCC(=O)N1c1cc(F)c(-c2noc(C(F)(F)F)n2)cc1F)N1CCc2ccccc2C1")
5.13
>>> number("CN1CC(=O)N(c2ccc(-c3noc(C(F)(F)F)n3)cc2)C(c2ccccc2)C1 (centres unmarked)")
5.85
>>> number("COCc1cccc(CCOc2cc(-c3noc(C(F)(F)F)n3)ccn2)c1")
5.52
>>> number("O=C1CCC(c2ccc(Cl)cc2)N1c1ccc(-c2noc(C(F)(F)F)n2)cc1F (centres unmarked)")
5.89
>>> number("O=C(NC1CCOCC1)OCc1ccc(-c2noc(C(F)(F)F)n2)cn1")
5.80

For Fc1cc(COc2cc[nH]n2)ccc1-c1noc(C(F)(F)F)n1 the compound record lists pIC50 as 5.89

For Cc1ccncc1COc1ccc(-c2noc(C(F)(F)F)n2)cn1 the compound record lists pIC50 as 6.05

For FC(F)(F)c1nc(-c2ccc(CNc3cccnc3)cc2)no1 the compound record lists pIC50 as 5.51

src = patent US11066396B2
